Molecular target: human NCX1 (Homo sapiens)
Construct: expressed in transfected cells
Experiment: Inhibition of Ca2+ influx into cells (NCX1 reverse mode), FLIPR Fluo-4 assay
Assay type: cell-based
Conditions: inhibition of NCX1 in reverse mode (Ca2+ influx into cells); read-out: NCX1rv IC50
pIC50: −log10 of the molar value. Structures can show the parent of a compound that is named as a salt.
Each item that follows carries a reported pIC50.

{"compound": "Cc1nc(C(=O)N[C@H]2CC[C@H](Oc3ccc4c(c3)CCC(c3ccccc3F)O4)CC2)cs1 (relative stereo)", "pIC50": 6.52}
{"compound": "N[C@H]1CC[C@H](Oc2ccc3c(c2)CC[C@@H](c2ccccc2)O3)CC1 [compound 10, hydrochloride]", "pIC50": 6.52}
{"compound": "CCn1nccc1CNC(=O)C1CCC(Oc2ccc3c(c2)CCC(c2ccccc2)O3)CC1 (single isomer, unassigned; stereoisomer 1) [compound 93]", "pIC50": 6.52}
{"compound": "CCC(C)(O)C(=O)N[C@H]1CC[C@H](Oc2ccc3c(c2)CCC(c2ccccc2)O3)CC1 (relative stereo)", "pIC50": 6.52}
{"compound": "Cc1c(F)cccc1C1CCc2cc(OC3CCC(C(=O)NC4CCCC4O)CC3)ccc2O1 (single isomer, unassigned; stereoisomer 2) [compound 280]", "pIC50": 7.00}
{"compound": "Cc1c(F)cccc1C1CCc2cc(OC3CCC(C(=O)NCCS(=O)(=O)N(C)C)CC3)ccc2O1 (stereo not shown)", "pIC50": 6.22}
{"compound": "Cc1ccccc1C1CCc2cc(OC3CCC(NCc4c(C)nn(C)c4C)CC3)ccc2O1 (stereo not shown)", "pIC50": 5.49}
